meta.source: paper PMC12040169

Test: in vitro
Settings: human, hela cells, % viability

molecule: O=C(O)c1ccc(NC(=O)c2ccccc2F)c(NC(=O)c2ccccc2F)c1 [CBK275363]
unitDescriptor: %
viability at 28.5 h, 10 µM: 101
--
molecule: O=C(c1ccccc1)c1ccc2[nH]nnc2c1 [CBK091608]
unitDescriptor: %
viability at 28.5 h, 10 µM: 94.2
--
molecule: Cc1ccc(OCC(=O)Nc2ccccc2CO)cc1 [CBK263600]
unitDescriptor: %
viability at 28.5 h, 10 µM: 88.7
--
molecule: O=C(Nc1cccc(N2CCNCC2)c1)c1coc2c1C(=O)CCC2 [CBK034113T]
unitDescriptor: %
viability at 28.5 h, 10 µM: 87.2
--
molecule: CC(CC(=O)N1CCC(c2cc3cccnc3[nH]2)CC1)n1cccn1 (centres unmarked) [CBK285036]
unitDescriptor: %
viability at 28.5 h, 10 µM: 100

---

Test system: CTL2-GFP (C. trachomatis L2/434/Bu, GFP-expressing)
Construct: L2/434/Bu, GFP-expressing
Test: microbe, parasite or virus in culture
Set-up: Intracellular C. trachomatis growth in HeLa cells, bulk GFP fluorescence relative to DMSO
Settings: Chlamydia trachomatis, HeLa, 28.5 h; bulk GFP, mean of 2; read-out: % of control remaining
parameter: activity at 10 µM (%)

compound: CC(=O)NC[C@H]1CN(c2ccc(-c3nnc(C(C)O)s3)c(F)c2)C(=O)O1 (some centres unmarked)
dataValue: 5.93
--
compound: COc1ccc(N2CCN(C(=O)c3ccc([N+](=O)[O-])o3)CC2)cc1
dataValue: 16
--
compound: CC(Cc1nc(-c2nccn2C)cs1)n1cc(Cl)cn1 (centres unmarked)
dataValue: 7.42
--
compound: CNC(=S)N1CCN(c2nsc3ccccc23)CC1
dataValue: 5.68
--
compound: Cc1c(OCc2cnn(-c3ccccc3)c2)ccc(-c2n[nH]c(C(F)(F)F)c2-c2ccccc2)c1O
dataValue: 49.7

---

Test: in vitro
Conditions: human, hela cells, % viability
Recorded viability at 28.5 h, 10 µM by entry

compound: COc1ccc(S(=O)(=O)Nc2ccccc2C(=O)Nc2ccc(F)cc2)cc1OC
viability at 28.5 h, 10 µM / %: 91.2
--
compound: COC(=O)c1sccc1NS(=O)(=O)c1cc(F)c(Br)cc1F
viability at 28.5 h, 10 µM / %: 103
--
compound: Cc1c(Cl)cccc1S(=O)(=O)Nc1nc(CCN2CCOCC2=O)cs1 [CBK003498K]
viability at 28.5 h, 10 µM / %: 87.7
--
compound: CN(C(=O)CN1CCCCC1Cn1cccn1)C1(C#N)CCCCC1 (stereo not drawn)
viability at 28.5 h, 10 µM / %: 90.1
--
compound: N/C(=N/OCC(=O)Nc1cccc2ccccc12)c1nonc1N
viability at 28.5 h, 10 µM / %: 90.6
--
compound: CN(C)CCN(Cc1ccccc1)c1ccccc1 [CBK012223C]
viability at 28.5 h, 10 µM / %: 114
--
compound: CS(=O)(=O)Nc1cc2ccccc2c(-c2ccc(OC(F)(F)F)cc2)n1
viability at 28.5 h, 10 µM / %: 121
--
compound: CCC(CO)Nc1cncc(-c2cccc(C(F)(F)F)c2)n1 (stereo not drawn)
viability at 28.5 h, 10 µM / %: 99.4
--
compound: CCn1c(C(O)c2ccc(OC)c(OC)c2)nc2ccccc21 (stereo not drawn)
viability at 28.5 h, 10 µM / %: 90.1
--
compound: O=C(NCc1ccc2c(c1)CCN2C(=O)c1ccncc1)c1cccnc1
viability at 28.5 h, 10 µM / %: 91.4
--
compound: CCn1c2ccccc2n2c(SCCC(=O)O)nnc12
viability at 28.5 h, 10 µM / %: 102
--
compound: N#Cc1ccc(CNC2(Cc3cc(-c4ccc(F)cc4)on3)COC2)cc1
viability at 28.5 h, 10 µM / %: 87.3
--
compound: O=C1NCCNC(=O)C2(C/C=C/COc3ccccc31)CCN(C(=O)c1ccc3[nH]nnc3c1)CC2
viability at 28.5 h, 10 µM / %: 106
--
compound: OCCc1ccc(Nc2cc(-c3cc4ccccc4s3)ncn2)cc1
viability at 28.5 h, 10 µM / %: 103
--
compound: COc1ccc(CNC(=O)CC[C@H]2CNC(=O)[C@H]3NCC[C@H]3N2C)cc1
viability at 28.5 h, 10 µM / %: 87.6
--
compound: Cn1cccc1C(=O)N[C@H]1C[C@H]2C(=O)Nc3cc(Cl)ccc3C(=O)N2C1
viability at 28.5 h, 10 µM / %: 86.7
--
compound: CC(C)CN1CCOC(CNC(=O)c2cc(O)nc3ccccc23)C1 (stereo not drawn)
viability at 28.5 h, 10 µM / %: 80.6
--
compound: CC(Oc1ccc(-c2ccccc2)cc1)C(=O)Nc1ccc2c(c1)OCCO2 (stereo not drawn)
viability at 28.5 h, 10 µM / %: 92.3
--
compound: CCCCOc1ccc(C(=O)N(C)c2ccc(CCC)cc2)cc1
viability at 28.5 h, 10 µM / %: 95.9
--
compound: CC1(C)Cc2c(c(-c3ccco3)nc3n[nH]c(N)c23)CO1
viability at 28.5 h, 10 µM / %: 84.3
--
compound: O=C1CCC(=O)N1CCOc1nccnc1N1CCN(CCc2c[nH]c3ccccc23)CC1
viability at 28.5 h, 10 µM / %: 95.5
--
compound: CCN(CC)C(=O)Cn1c(=O)n(CC)c2ncccc21
viability at 28.5 h, 10 µM / %: 107
--
compound: Cc1nc(N2CCCC2)ncc1-c1cc(O)nc(N2CCCCC2)n1
viability at 28.5 h, 10 µM / %: 92.3
--
compound: COC(=O)Nc1ccc2c(c1)N(C(=O)CCN(C)C)c1ccccc1CC2 [CBK262972C]
viability at 28.5 h, 10 µM / %: 87.2
--
compound: Cc1cc(C(=O)CSc2nnc(-c3ccccc3F)n2CC(C)C)c(C)[nH]1
viability at 28.5 h, 10 µM / %: 85.1
--
compound: Cc1ccc(N(CC(=O)Nc2ccccc2F)S(=O)(=O)c2ccc(F)cc2)cc1
viability at 28.5 h, 10 µM / %: 91.9
--
compound: Cc1csc(C(Cc2ccsc2)NC(=O)C2CCOC2)n1 (stereo not drawn)
viability at 28.5 h, 10 µM / %: 94.9
--
compound: CN(C)c1ccc(Nc2ncnc3c2cnn3CCC#N)cn1
viability at 28.5 h, 10 µM / %: 103
--
compound: CNC(=O)NC(=O)C(C)NCC1(c2cc(C)ccc2OC)CCOCC1 (stereo not drawn)
viability at 28.5 h, 10 µM / %: 79.1
--
compound: Cc1n[nH]c(C)c1CCCCCOc1ccccc1F [CBK025736C]
viability at 28.5 h, 10 µM / %: 88.9
--
compound: CCCN1CCCC(c2ccccc2O)C1 (stereo not drawn) [CBK024365G]
viability at 28.5 h, 10 µM / %: 95.3
--
compound: S=c1[nH]nc(CN2CCSCC2)n1-c1ccc(Cl)cc1
viability at 28.5 h, 10 µM / %: 105
--
compound: COc1ccc(NC(=O)CS(=O)(=O)Cc2ccccc2)c([N+](=O)[O-])c1
viability at 28.5 h, 10 µM / %: 93.1
--
compound: COc1ccc(CCCC(=O)NCc2ccc(OC3CCNCC3)cc2)cc1OC [CBK028428T]
viability at 28.5 h, 10 µM / %: 94.9
--
compound: Cc1ccc(NC(=O)CCc2c(C)nc(N3CCOCC3)[nH]c2=O)cc1
viability at 28.5 h, 10 µM / %: 98.2
--
compound: O=C(O)CSC1=CC(=O)N(c2ccc(Br)cc2)C1=O
viability at 28.5 h, 10 µM / %: 81.5
--
compound: COc1ccc(N2CCN(C(=O)CCC(F)(F)F)CC2)cc1
viability at 28.5 h, 10 µM / %: 100
--
compound: C(=C\CSC1=NCCN1)/CSC1=NCCN1
viability at 28.5 h, 10 µM / %: 107
--
compound: Cc1cc(C)cc(OCc2nnc(SCC(=O)Nc3c(F)cc(F)cc3Br)n2C)c1
viability at 28.5 h, 10 µM / %: 83.6
